species on record: Rattus norvegicus; test: Inhibition of rat recombinant Rab geranylgeranyltransferase at 100 uM in presence of canine Rab7 and rat REP1 NBD-FPP based continuous fluorimetric assay
Attribute Measured: inhibition (%)

CC[C@H](C)[C@H](NC(=O)c1ccc(-c2ccccc2)cc1)C(=O)N[C@@H](C(=O)N[C@@H](CCC(N)=O)C(=O)OCCCl)C(C)C = 89
O=C(CNC(=O)[C@H](Cc1ccc(O)cc1)NC(=O)c1ccc(F)cc1)N[C@@H](Cc1ccc(O)cc1)C(=O)NCc1ccccc1 = 60
CCCCCCCCCCCOc1ccc(C(=O)N[C@@H](Cc2c[nH]cn2)C(=O)N[C@@H](Cc2ccc(O)cc2)C(=O)N[C@@H](Cc2ccccc2)C(=O)O)cc1 = 75

[P] CCCCCCCCCCC(=O)N[C@@H](Cc1ccc(O)cc1)C(=O)N[C@@H](Cc1c[nH]cn1)C(=O)N[C@@H](Cc1c[nH]cn1)C(=O)Nc1ccccn1
[Q] COc1ccc(NC(=O)[C@H](CCC(N)=O)NC(=O)[C@H](Cc2ccccc2)NC(=O)[C@H](CO)NC(=O)CCc2ccccc2)cc1
Lab notebook, comparison: P versus Q , higher inhibition goes to which? When you have decided, please share the label of that item.
Q
